Test system: Escherichia coli
Experiment: Antibacterial activity against Escherichia coli at 100 ug/ml by agar cup-plate method
Type: functional
Settings: read-out: IZ
Listed here: items and their measured zone of inhibition at 100 µg/mL.

COMPOUND_STRUCTURE_STRING	MEASUREMENT_TARGET	READOUT_UNIT	RELATION_SIGN	zone of inhibition at 100 µg/mL
COc1ccc(/C=N/c2c(C)n(C)n(-c3ccccc3)c2=O)cc1	Escherichia coli	mm	=	5
Cc1c(/N=C/c2ccccc2)c(=O)n(-c2ccccc2)n1C	Escherichia coli	mm	<	5
Cc1c(/N=C/c2ccc(O)cc2)c(=O)n(-c2ccccc2)n1C	Escherichia coli	mm	=	5

* * *

Species on record: Mus musculus
Assay: Toxicity in Mus musculus (mouse) assessed as irritation
Type: organism-based
Settings: in vivo

COMPOUND_STRUCTURE_STRING	Activity
Cc1c(/N=C/c2ccccc2[N+](=O)[O-])c(=O)n(-c2ccccc2)n1C	Non-toxic
Cc1c(/N=C/c2ccccc2Cl)c(=O)n(-c2ccccc2)n1C	Non-toxic
Cc1c(/N=C/c2ccc(O)cc2)c(=O)n(-c2ccccc2)n1C	Non-toxic
